Would you mind telling me the reported normalized growth of each entry?
test: chemical genetic growth profiling, strain panel (AID 1159580);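 also: tested at 20 µM; growth read once vehicle control cultures reached saturation at 30 °C; 1 = growth at the plate median or of vehicle wells; lower values mean less growth of the strain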; details: S. cerevisiae deletion strains, growth OD, locus YJL187C, strain SWE1, hits give low values
The campaign covered roughly 5,500 compounds. About 2,000 (36%) were called active. Roughly 18% stayed inconclusive and do not appear here. The list shows a part of the results.
Give bare numbers.

Below, 5 molecules whose answers are already recorded.
molecule=COC(=O)/C(=C1\OC(=O)C(c2ccccc2)=C1O)c1ccccc1 endpoint_value=0.98
molecule="NC(Cn1ccc(=O)c(O)c1)C(=O)O (stereo unspecified)" endpoint_value=1.01
molecule=CC(C)C[C@@H](CN)CC(=O)O endpoint_value=1.01
molecule="CC(=O)O[C@@H]1CC2C(C)(C)[C@H](O)C=C[C@]2(C)C2CC[C@]3(C)C(=CC(=O)O[C@H]3c3ccoc3)[C@@]21C (stereo partly specified)" endpoint_value=0.986
molecule=Cc1nc(N)cc(C[n+]2csc(CCO)c2C)n1 endpoint_value=0.99

Batch lookup, normalized growth per entry.
1. CC(=O)O[C@H]1CC[C@@]2(C)C(C[C@@H](OC(C)=O)[C@@]3(C)C4=CC(=O)O[C@@H](c5ccoc5)[C@]4(C)CCC23)C1(C)C (stereo partly specified)
2. CC(CCC(=O)O)[C@H]1CCC2C3C(=O)C[C@@H]4CC(=O)CC[C@]4(C)C3CC(=O)[C@@]21C (stereo partly specified)
3. COc1ccc2cc(CCC(C)=O)ccc2c1
4. CC(=O)c1cc(CC=C(C)C)c(O)c(CC=C(C)C)c1
5. Cc1ccc(Sc2ccc([N+](=O)[O-])cc2/C=C2\SC(=S)NC2=O)cc1
6. CC(=O)O[C@@H]1C=C[C@@]2(C)C(C[C@@H](OC(C)=O)[C@@]3(C)C4=CC(=O)O[C@@H](c5ccoc5)[C@]4(C)CCC23)C1(C)C (stereo partly specified)
7. O=P1(NCCCl)OCCCN1CCCl (stereo unspecified)

Result string:
[1.01, 0.99, 0.992, 1.01, 1, 0.994, 0.99]

---

assay: chemical genetic growth profiling, strain panel (AID 1159580); settings: S. cerevisiae deletion strains, growth OD, locus YNR030W, strain Alg12, hits give low values
In all, about 5,500 compounds went through this assay and about 2,000 (36%) were called active. Another 18% or so got no clear call; they are omitted. This is one part of the list.
PARAMETER MEASURED: normalized growth
Numbers only.

Below, 10 compounds whose answers are already recorded.
compound=Cc1cccc(Cn2nc(C(C)(C)C)cc2C(=O)O)c1 endpoint_value=1
compound=NC(N)=NC(N)=Nc1ccc2c(c1)OCCO2 endpoint_value=0.995
compound=Cc1ccc(-c2nn[nH]n2)cc1Cl endpoint_value=1
compound=Cn1c(CSc2ccccc2)n[nH]c1=S endpoint_value=1.02
compound=O=C1c2ccccc2C(=O)N1CN(CCSc1ccccc1)CN1C(=O)c2ccccc2C1=O endpoint_value=1
compound=O=C(O)CCCNCc1cccc2ccccc12 endpoint_value=1
compound="O=C(O)C1C2CCC1C(O)C2 (stereo not given)" endpoint_value=1.01
compound=OCc1ccccc1-c1ccccc1 endpoint_value=0.994
compound=O=S(=O)(Oc1ccc(OCc2ccccc2)cc1)c1cc(Cl)cc(Cl)c1 endpoint_value=0.998
compound="CSc1sc(C#N)c2c1C(O)CCC2 (stereo not given)" endpoint_value=0.974

Batch lookup, normalized growth per entry.
1. CCOC(=O)c1ccc(NC(=O)CCC(=O)O)cc1
2. N/C(Cc1cccc2ccccc12)=N/O
3. CCCc1cc(=O)oc2cc(OCC(=O)OCC)ccc12
4. NNC(=S)Nc1ccc2c(c1)OCCO2
5. O=C1NC2CC2N1C(=O)OCc1ccccc1 (stereo not given)

Result string:
1. 1.02
2. 1
3. 0.965
4. 0.806
5. 0.988

---

Would you mind telling me the reported normalized growth of each entry?
test: chemical genetic growth profiling, strain panel (AID 1159580); conditions: S. cerevisiae deletion strains, growth OD, locus YEL003W, strain gim4, hits give low values
Out of some 5,500 compounds screened, about 2,000 (36%) were called active. Another 18% or so got no clear call; they are omitted. This is one part of the list.
One number for each entry.

compound="CC(=O)O[C@H]1CCC2(C)C3=C(CCC2C1(C)C)[C@]1(C)CCC(C(C)CCC=C(C)C)[C@@]1(C)CC3 (stereo partly specified)" parameter_measured="normalized growth" endpoint_value=0.969

Batch lookup, normalized growth per entry.
1. O=C(O)c1cccnc1
2. CC(C)=CCc1c2c(c3occ(-c4ccc(O)c(O)c4)c(=O)c3c1O)C=CC(C)(C)O2
3. CC(CCC(=O)O)[C@H]1CCC2C3CC[C@@H]4C[C@H](O)CC[C@]4(C)C3C=C[C@@]21C (stereo partly specified)
4. O=C(O)c1ccccc1
5. C[C@H](CCC(=O)O)[C@H]1CCC2C3C(=O)CC4CC(=O)CC[C@]4(C)C3CC(=O)[C@@]21C (stereo partly specified)

Result string:
1: 0.985; 2: 0.932; 3: 0.968; 4: 0.988; 5: 0.979

Batch lookup, normalized growth per entry.
1. CNCCCC12CCC(c3ccccc31)c1ccccc12
2. COC(=O)c1c(C)c2c(c(C)c1O)OC(=O)c1c(C)c(Cl)c(O)c(Cl)c1O2
3. O=C(O)c1ccc(S(=O)(=O)N(Cl)Cl)cc1
4. CCOC(=O)NNc1nncc2ccccc12
5. COc1ccc2cc(CCC(C)=O)ccc2c1
6. CC(=O)O[C@H]1CCC2(C)C3=C(CCC2C1(C)C)[C@@]1(C)CC[C@@H](C(C)CCC=C(C)C)[C@]1(C)CC3 (stereo partly specified)

Result string:
1. 0.978
2. 0.969
3. 0.964
4. 0.998
5. 0.991
6. 1.02

Batch lookup, normalized growth per entry.
1. Cc1c(C)c2c(c(C)c1O)CCC(C)(CCCC(C)CCCC(C)CCCC(C)C)O2 (stereo unspecified)
2. Nc1ccc(C(=O)O)cc1
3. CN(C)[C@@H]1C(=O)C(C(N)=O)=C(O)[C@@]2(O)C(=O)C3=C(O)c4c(O)cccc4[C@@](C)(O)[C@H]3[C@H](O)[C@@H]12
4. CN(C)[C@@H]1C(=O)C(C(N)=O)=C(O)[C@@]2(O)C(=O)C3=C(O)c4c(O)ccc(Cl)c4[C@@H](O)[C@H]3C[C@@H]12

Result string:
0.979
1.02
1.01
0.98

---

assay: chemical genetic growth profiling, strain panel (AID 1159580);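 also: tested at 20 µM; growth read once vehicle control cultures reached saturation at 30 °C; 1 = growth at the plate median or of vehicle wells; lower values mean less growth of the strain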; conditions: S. cerevisiae deletion strains, growth OD, locus YHR079C, strain IRE1 (second series)
The whole screen tested about 5,500 compounds, of which about 2,000 (36%) were called active. Roughly 18% stayed inconclusive and do not appear here. Cut-off read from the data, not from the text of the source: active = normalized growth mostly below about 0.91 (no sharp cut-off); inconclusive = no clear call, values can overlap the other calls; inactive = mostly above about 0.92. The list shows a part of the results.
Permitted responses: active, inactive

Consider the worked cases shown below.
molecule="CC12CCC(=O)C=C1CCC1C2[C@@H](O)CC2(C)C1CC[C@]2(O)C(=O)COP(=O)(O)O (stereo partly drawn)" group_label=inactive
molecule="CC(C)CCCC(C)[C@H]1CCC2C3CC=C4C[C@@H](O)CC[C@]4(C)C3CC[C@@]21C (stereo partly drawn)" group_label=inactive

From here, focus on the item given below.
Query string: Called result for CC(C)=CCc1c2c(c3occ(-c4ccc(O)c(O)c4)c(=O)c3c1O)C=CC(C)(C)O2
Result string: active

---

experiment: chemical genetic growth profiling, strain panel (AID 1159580);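 also: tested at 20 µM; growth read once vehicle control cultures reached saturation at 30 °C; 1 = growth at the plate median or of vehicle wells; lower values mean less growth of the strain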; conditions: S. cerevisiae deletion strains, growth OD, locus YPR141C, strain kar3, hits give low values
Out of some 5,500 compounds screened, about 2,000 (36%) were called active. Not shown: some 18% with an inconclusive outcome. Some of the results follow.
Would you mind telling me the reported normalized growth of each entry?
Numbers only.

chemical_structure=CCOC(=O)NNc1nncc2ccccc12 parameter_measured="normalized growth" endpoint_value=0.973

Batch lookup, normalized growth per entry.
1. Oc1cccc(O)c1
2. N[C@@H](CCC(=O)N[C@@H](CS)C(=O)NCC(=O)O)C(=O)O
3. CCN(CC)CCOC(=O)C1(C2CCCCC2)CCCCC1

Result string:
1: 0.988; 2: 0.981; 3: 0.993

---

test: chemical genetic growth profiling, strain panel (AID 1159580);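 also: tested at 20 µM; growth read once vehicle control cultures reached saturation at 30 °C; 1 = growth at the plate median or of vehicle wells; lower values mean less growth of the strain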; conditions: S. cerevisiae deletion strains, growth OD, locus YOR231W, strain MKK1, hits give low values
About 2,000 (36%) of roughly 5,500 compounds were called active. Not shown: some 18% with an inconclusive outcome. Some of the results follow.
Would you mind telling me the reported normalized growth of each entry?
Answers are plain numbers.

compound="CC12CCC3C(CC3(C)C)C(C)(CCC1=O)O2 (stereo unspecified)" parameter_measured="normalized growth" endpoint_value=1.05

Batch lookup, normalized growth per entry.
1. O=C(O)c1cc(O)c2c(c1)[C@@H]([C@H]1c3cc(C(=O)O)cc(O)c3C(=O)c3c(O[C@H]4O[C@H](CO)[C@@H](O)[C@H](O)[C@H]4O)cccc31)c1cccc(O[C@H]3O[C@H](CO)[C@@H](O)[C@H](O)[C@H]3O)c1C2=O
2. CN(C)CCCN1c2ccccc2Sc2ccccc21
3. C[C@H](CCC(=O)O)[C@H]1CCC2C3C(=O)CC4CC(=O)CC[C@]4(C)C3CC(=O)[C@@]21C (stereo partly specified)
4. CN(C)CCCN1c2ccccc2CCc2ccccc21
5. Cc1scc2c1N(C(=O)CN1CCN(C)CC1)c1ccccc1NC2=O
6. Cc1ccc(-c2csc(-c3ccncc3)n2)cc1

Result string:
0.988
0.986
1.03
0.975
1.05
0.691
